binders and their reported pEC50
- test target: T1, human Claudin 18.2 (human)
- T1 construct: Overexpressed on HEK293A or MC38 cells by lentivirus; endogenous on KATO-III and NUGC-4 cells
- test: FACS on HEK-293A cells expressing human Claudin 18.2
Friendly reminder that pEC50 comes from taking -log10 of the concentration in mol/L.

binder	numeric readout
18F2-5 (antibody, human IgG1, kappa, V domains shown) VH: QVQLQQPGAELVRPGASVKLSCKASGYTFTSFWLNWVKQRPGQGLEWIGNIYPSTSYTVYNQKFKDKATLTVDKSSSTAYMQLSSPTSEDSAVYYCTRTWRGNSFDLWGQGTTLTVSS VL: DIVMTQSPSSLTVTAGEKVTMSCKSNQSLLNSGNQKNYVTWYQQKPGQPPKLLIYWGSTRVRGVPDRFTGSGSGTDFTLTISSVQAEDLAVYYCQNDYTYPFTFGSGTKLEIKR	9.21
18F2-35 (antibody, human IgG1, kappa, V domains shown) VH: QVQLQQPGAELVRPGASVKLSCKASGYTFTSFWLNWVKQRPGQGLEWIGNIYPSTSYTIYNQKFKDKATLTVDKSSSTAYMQLSSPTSEDSAVYYCTRTWRGNSFDYWGQGTTLTVSS VL: DIVMTQSPSSLTVTAGEKVTMSCKSSQSLLNSGNQKNYLTWYQQKPGQPPKLLIYWGSTRVRGVPDRFTGSGSGTDFTLTISSVQAEDLAVYYCQNDYTYPFTFGSGTKLEIKR	9.29
IMAB362 (antibody, V domains shown) VH: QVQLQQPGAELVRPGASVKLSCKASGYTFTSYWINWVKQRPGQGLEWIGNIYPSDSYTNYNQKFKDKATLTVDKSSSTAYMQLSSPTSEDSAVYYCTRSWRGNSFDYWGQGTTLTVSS VL: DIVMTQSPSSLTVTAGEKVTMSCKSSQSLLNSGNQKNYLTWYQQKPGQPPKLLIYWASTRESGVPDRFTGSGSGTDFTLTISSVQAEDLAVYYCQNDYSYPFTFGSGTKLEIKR	9.20

Pending binder:
Query (binder): 18F2-30 (antibody, human IgG1, kappa, V domains shown) VH: QVQLQQPGAELVRPGASVKLSCKASGYTFTSFWLNWVKQRPGQGLEWIGNIYPSTSYTVYNQKFKDKATLTVDKSSSTAYMQLSSPTSEDSAVYYCTRTWRGNSFDYWGQGTTLTVSS VL: DIVMTQSPSSLTVTAGEKVTMSCKSSQSLLNSGNQKNYVTWYQQKPGQPPKLLIYWGSTRSTGVPDRFTGSGSGTDFTLTISSVQAEDLAVYYCQNDYTYPFTFGSGTKLEIKR ; field requested: pEC50
9.25
